assay: in vivo; settings: dog
Below, each entry is listed with its recorded concentration at 7 day.

Lab note: measured concentration at 7 day of `CO[C@H]1/C=C/O[C@@]2(C)Oc3c(C)c(O)c4c(O)c(c(/C=N/N5CCN(C)CC5)c(O)c4c3C2=O)NC(=O)/C(C)=C\C=C\[C@H](C)[C@H](O)[C@@H](C)[C@@H](O)[C@@H](C)[C@H](OC(C)=O)[C@@H]1C` was < 100 ng/mL

Lab note: measured concentration at 7 day of `NC[C@H]1O[C@H](O[C@H]2[C@H](O)[C@@H](O[C@H]3O[C@H](CO)[C@@H](O)[C@H](N)[C@H]3O)[C@H](N)C[C@@H]2N)[C@H](N)C[C@@H]1O` was < 400 ng/mL

====

experiment: in vivo; details: dog
RECORDED ENDPOINT: concentration at 14 day

Lab note: measured concentration at 14 day of NC[C@H]1O[C@H](O[C@H]2[C@H](O)[C@@H](O[C@H]3O[C@H](CO)[C@@H](O)[C@H](N)[C@H]3O)[C@H](N)C[C@@H]2N)[C@H](N)C[C@@H]1O [Tobramycin, tobramycin] was < 400 ng/mL

Now let's try a different one.
Lab note: measured concentration at 14 day of CO[C@H]1/C=C/O[C@@]2(C)Oc3c(C)c(O)c4c(O)c(c(/C=N/N5CCN(C)CC5)c(O)c4c3C2=O)NC(=O)/C(C)=C\C=C\[C@H](C)[C@H](O)[C@@H](C)[C@@H](O)[C@@H](C)[C@H](OC(C)=O)[C@@H]1C [Rifampicin, rifampicin] was < 100 ng/mL

====

assay: elution rate: rifampicin/tobramycin content remaining on the graft; type: in vivo; conditions: dog, explanted graft, other: graft implanted end to end in the infrarenal aorta, graft harvested from dog, Implant Duration 14 Days; one line per dog; read-out: Tobramycin Content, 2nd Extraction
RECORDED ENDPOINT: concentration at 14 days

Lab note: measured concentration at 14 days of `NC[C@H]1O[C@H](O[C@H]2[C@H](O)[C@@H](O[C@H]3O[C@H](CO)[C@@H](O)[C@H](N)[C@H]3O)[C@H](N)C[C@@H]2N)[C@H](N)C[C@@H]1O` was < 400 ng/g

====

test: elution rate: rifampicin/tobramycin content remaining on the graft; type: in vivo; details: dog, explanted graft, other: graft implanted end to end in the infrarenal aorta, graft harvested from dog, Implant Duration 21 Days; one line per dog; read-out: Rifampicin Content, Total
RECORDED ENDPOINT: concentration at 21 days (ng/g)
The reply should contain only the number, in ng/g.

Lab note: measured concentration at 21 days of `CO[C@H]1/C=C/O[C@@]2(C)Oc3c(C)c(O)c4c(O)c(c(/C=N/N5CCN(C)CC5)c(O)c4c3C2=O)NC(=O)/C(C)=C\C=C\[C@H](C)[C@H](O)[C@@H](C)[C@@H](O)[C@@H](C)[C@H](OC(C)=O)[C@@H]1C` was 340

====

assay: elution rate: rifampicin/tobramycin content remaining on the graft; assay type: in vivo; conditions: dog, explanted graft, other: graft implanted end to end in the infrarenal aorta, graft harvested from dog, Implant Duration 7 Days; one line per dog; read-out: Tobramycin Content, Total
RECORDED ENDPOINT: concentration at 7 days (ng/g)
The reply should contain only the number, in ng/g.

Lab note: measured concentration at 7 days of NC[C@H]1O[C@H](O[C@H]2[C@H](O)[C@@H](O[C@H]3O[C@H](CO)[C@@H](O)[C@H](N)[C@H]3O)[C@H](N)C[C@@H]2N)[C@H](N)C[C@@H]1O [Tobramycin, tobramycin] was 4800

====

assay: elution rate: rifampicin/tobramycin content remaining on the graft; type: in vivo; conditions: dog, explanted graft, other: graft implanted end to end in the infrarenal aorta, graft harvested from dog, Implant Duration 21 Days; one line per dog; read-out: Rifampicin Content, 1st Extraction
RECORDED ENDPOINT: concentration at 21 days (ng/g)
The reply should contain only the number, in ng/g.

Lab note: measured concentration at 21 days of `CO[C@H]1/C=C/O[C@@]2(C)Oc3c(C)c(O)c4c(O)c(c(/C=N/N5CCN(C)CC5)c(O)c4c3C2=O)NC(=O)/C(C)=C\C=C\[C@H](C)[C@H](O)[C@@H](C)[C@@H](O)[C@@H](C)[C@H](OC(C)=O)[C@@H]1C` was 340

====

experiment: elution rate: rifampicin/tobramycin content remaining on the graft; format: in vivo; conditions: dog, explanted graft, other: graft implanted end to end in the infrarenal aorta, graft harvested from dog, Implant Duration 7 Days; one line per dog; read-out: Rifampicin Content, 1st Extraction
RECORDED ENDPOINT: concentration at 7 days (ng/g)
The reply should contain only the number, in ng/g.

Lab note: measured concentration at 7 days of CO[C@H]1/C=C/O[C@@]2(C)Oc3c(C)c(O)c4c(O)c(c(/C=N/N5CCN(C)CC5)c(O)c4c3C2=O)NC(=O)/C(C)=C\C=C\[C@H](C)[C@H](O)[C@@H](C)[C@@H](O)[C@@H](C)[C@H](OC(C)=O)[C@@H]1C [Rifampicin, rifampicin] was 890

====

test: elution rate: rifampicin/tobramycin content remaining on the graft; assay type: in vivo; conditions: dog, explanted graft, other: graft implanted end to end in the infrarenal aorta, graft harvested from dog, Implant Duration 21 Days; one line per dog; read-out: Tobramycin Content, 2nd Extraction
RECORDED ENDPOINT: concentration at 21 days

Lab note: measured concentration at 21 days of NC[C@H]1O[C@H](O[C@H]2[C@H](O)[C@@H](O[C@H]3O[C@H](CO)[C@@H](O)[C@H](N)[C@H]3O)[C@H](N)C[C@@H]2N)[C@H](N)C[C@@H]1O [Tobramycin, tobramycin] was < 400 ng/g

====

experiment: elution rate: rifampicin/tobramycin content remaining on the graft; format: in vivo; conditions: dog, explanted graft, other: graft implanted end to end in the infrarenal aorta, graft harvested from dog, Implant Duration 7 Days; one line per dog; read-out: Tobramycin Content, 2nd Extraction
RECORDED ENDPOINT: concentration at 7 days

Lab note: measured concentration at 7 days of `NC[C@H]1O[C@H](O[C@H]2[C@H](O)[C@@H](O[C@H]3O[C@H](CO)[C@@H](O)[C@H](N)[C@H]3O)[C@H](N)C[C@@H]2N)[C@H](N)C[C@@H]1O` was < 400 ng/g

====

assay: in vivo; conditions: dog
RECORDED ENDPOINT: concentration at 1 day (µg/mL)
The reply should contain only the number, in µg/mL.

Lab note: measured concentration at 1 day of CO[C@H]1/C=C/O[C@@]2(C)Oc3c(C)c(O)c4c(O)c(c(/C=N/N5CCN(C)CC5)c(O)c4c3C2=O)NC(=O)/C(C)=C\C=C\[C@H](C)[C@H](O)[C@@H](C)[C@@H](O)[C@@H](C)[C@H](OC(C)=O)[C@@H]1C [Rifampicin, rifampicin] was 0.23
